target: DGKz (Homo sapiens (Human), UniProt Q13574)
Sequence (Q13574 whole entry): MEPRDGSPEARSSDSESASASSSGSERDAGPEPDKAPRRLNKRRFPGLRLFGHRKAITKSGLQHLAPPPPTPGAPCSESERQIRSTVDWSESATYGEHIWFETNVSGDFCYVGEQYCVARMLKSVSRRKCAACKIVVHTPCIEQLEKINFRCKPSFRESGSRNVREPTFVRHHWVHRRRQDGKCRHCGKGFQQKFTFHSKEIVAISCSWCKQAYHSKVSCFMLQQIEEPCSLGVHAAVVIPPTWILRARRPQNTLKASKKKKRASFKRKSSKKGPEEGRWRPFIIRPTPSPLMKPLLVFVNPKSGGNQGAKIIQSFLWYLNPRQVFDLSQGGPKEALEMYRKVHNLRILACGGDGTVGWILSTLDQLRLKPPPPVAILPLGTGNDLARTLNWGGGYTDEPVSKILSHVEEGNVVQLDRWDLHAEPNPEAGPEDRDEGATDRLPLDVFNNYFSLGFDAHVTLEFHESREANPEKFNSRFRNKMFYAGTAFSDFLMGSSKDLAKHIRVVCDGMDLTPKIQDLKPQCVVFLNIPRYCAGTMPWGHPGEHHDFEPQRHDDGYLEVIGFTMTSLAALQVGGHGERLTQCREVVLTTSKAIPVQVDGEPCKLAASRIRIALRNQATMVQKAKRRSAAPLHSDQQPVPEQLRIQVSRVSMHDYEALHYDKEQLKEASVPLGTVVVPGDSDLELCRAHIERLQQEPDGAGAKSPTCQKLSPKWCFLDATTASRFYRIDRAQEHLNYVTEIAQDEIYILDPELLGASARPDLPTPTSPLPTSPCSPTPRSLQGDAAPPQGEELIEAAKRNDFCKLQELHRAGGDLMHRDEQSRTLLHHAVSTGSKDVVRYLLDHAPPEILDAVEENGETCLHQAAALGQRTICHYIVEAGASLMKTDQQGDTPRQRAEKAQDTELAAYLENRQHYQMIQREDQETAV
Each entry below lists one item and its recorded IC50 value.

molecule	endpoint-result
CC[C@H]1CN([C@@H](CC)c2ccc(C(F)(F)F)nc2)[C@H](CC)CN1c1nc2nncn2c2ccc(C#N)nc12 (stereo in doubt) [Compound 111]	< 100 nM
CC[C@H]1CN([C@H](CC)c2cccc(S(F)(F)(F)(F)F)c2)[C@H](CC)CN1c1nc(=O)n(C)c2ccc(C#N)nc12 (stereo in doubt) [Compound 55]	< 100 nM
CC[C@H]1CN([C@@H](CC)c2ccc(OC)cc2F)[C@H](CC)CN1c1nc2nncn2c2ccc(C#N)nc12 (stereo in doubt) [Compound 115]	< 100 nM

DGKz (Homo sapiens (Human), UniProt Q13574) assay, molecule CC[C@H]1CN([C@@H](CC)c2ccc(C(F)(F)F)cc2)[C@H](CC)CN1c1nc2nncn2c2ccc(C#N)nc12 (single isomer, unassigned) [Compound 34] , recorded IC50 = < 100 nM

Observed IC50 on DGKz (Homo sapiens (Human), UniProt Q13574), entry CC[C@H]1CN([C@@H]2CCCCc3cc(C(F)(F)F)ccc32)[C@H](CC)CN1c1nc2nncn2c2ccc(C#N)nc12 [Compound 114] , equals < 100 nM

Query CC[C@@H]1CN(c2nc(=O)n(C)c3ccc(C#N)nc23)[C@@H](C)CN1C(c1ccc(S(F)(F)(F)(F)F)cc1)c1nc(C2CC2)no1 (some centres unmarked) [Compound 65] on DGKz (Homo sapiens (Human), UniProt Q13574); IC50 returned: < 100 nM

Form field, IC50 with DGKz (Homo sapiens (Human), UniProt Q13574), item CC[C@H]1C[C@H](Oc2ccc(OC(F)(F)F)cc2)CCN1c1nc(=O)n(C)c2ccc(C#N)nc12 (stereo in doubt) [Compound 18] : 100 to 1000 nM

DGKz (Homo sapiens (Human), UniProt Q13574) IC50 of CC[C@@H]1CN2c3c(c(=O)n(C)c4ccc(C#N)nc34)OC[C@H]2CN1[C@@H](CC)c1ccc(C(F)(F)F)cc1 [Compound 107] is 100 to 1000 nM

* * *

Data export: pIC50 values recorded with DGKa (Homo sapiens (Human), UniProt P23743).
Sequence (P23743 whole entry): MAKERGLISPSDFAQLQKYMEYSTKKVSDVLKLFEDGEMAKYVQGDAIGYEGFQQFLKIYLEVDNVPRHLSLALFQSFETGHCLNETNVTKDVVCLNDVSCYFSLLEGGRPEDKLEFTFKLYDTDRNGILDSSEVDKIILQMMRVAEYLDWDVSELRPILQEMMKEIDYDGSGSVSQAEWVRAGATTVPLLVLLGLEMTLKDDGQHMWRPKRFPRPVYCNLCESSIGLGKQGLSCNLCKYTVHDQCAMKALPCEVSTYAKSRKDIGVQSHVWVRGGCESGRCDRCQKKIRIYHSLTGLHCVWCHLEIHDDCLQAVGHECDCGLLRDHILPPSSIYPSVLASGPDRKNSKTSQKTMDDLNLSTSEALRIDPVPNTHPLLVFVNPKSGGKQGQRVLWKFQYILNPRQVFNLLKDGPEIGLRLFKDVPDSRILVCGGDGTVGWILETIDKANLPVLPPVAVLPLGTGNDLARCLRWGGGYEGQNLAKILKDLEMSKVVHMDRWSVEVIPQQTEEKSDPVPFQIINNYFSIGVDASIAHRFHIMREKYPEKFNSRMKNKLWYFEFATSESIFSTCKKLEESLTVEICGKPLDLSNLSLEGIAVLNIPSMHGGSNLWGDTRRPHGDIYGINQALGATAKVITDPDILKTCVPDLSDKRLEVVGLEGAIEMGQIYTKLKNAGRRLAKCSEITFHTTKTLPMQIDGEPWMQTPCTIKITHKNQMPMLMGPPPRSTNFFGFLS
pIC50: −log10 of the molar value.

Example compounds with recorded pIC50:
> print(dat)
                                   compound  endpoint.result
1  CC[C@@H]1CN(c2nc3nncn3c3ccc(C#N)nc23)[C@@H](C)CN1[C@H](CC)c1ccc(S(F)(F)(F)(F)F)cc1 (stereo in doubt)           > 7.00
2  CC[C@H]1CN([C@H](CC)c2ccc(C(F)(F)F)nc2)[C@H](CC)CN1c1nc2nncn2c2ccc(C#N)nc12 (stereo in doubt)           > 7.00
3  Cn1c(=O)nc(N2CCCc3c(C#CC4CC4)cccc32)c2nc(C#N)ccc21 [Compound 39]           > 7.00
4  CC[C@H]1CN([C@@H](C)c2ccc(S(F)(F)(F)(F)F)cc2)[C@H](CC)CN1c1nc(=O)n(C)c2ccc(C#N)nc12 (stereo in doubt)           > 7.00
5  CC[C@H]1CN([C@H](CC)c2ccc(OC(F)(F)F)cc2)[C@H](CC)CN1c1nc2nncn2c2ccc(C#N)nc12 (stereo in doubt)           > 7.00

CC[C@@H]1CN(c2nc(=O)n(C)c3ccc(C#N)nc23)[C@@H](C)CN1[C@H](CC)c1ccc(S(F)(F)(F)(F)F)cc1 (stereo in doubt) on DGKa (Homo sapiens (Human), UniProt P23743) gives pIC50 = 6.00 to 7.00

Simply: Cc1ccccc1-n1cc(C2CCN(c3nc(=O)n(C)c4ccc(C#N)nc34)CC2)cn1 , DGKa (Homo sapiens (Human), UniProt P23743), pIC50 = < 6.00

Noted pIC50 for CC[C@H]1CN([C@@H](CC)c2ccc(C(F)(F)F)cc2)[C@H](CC)CN1c1nc2nncn2c2ccc(C#N)nc12 (single isomer, unassigned) [Compound 34] , tested on DGKa (Homo sapiens (Human), UniProt P23743): > 7.00

Readout pIC50 for CC[C@H]1CN([C@@H](c2ccc(S(F)(F)(F)(F)F)cc2)c2nc(C3CC3)cs2)[C@H](CC)CN1c1nc(=O)n(C)c2ccc(C#N)nc12 , test system DGKa (Homo sapiens (Human), UniProt P23743), was > 7.00
